# assayedSystem: NADPH oxidase 4 (Homo sapiens)
# protocolText: NOX4-dependent H2O2 signal modulators, primary screen, NOX inhibitor project, cell-based, HEK293-NOX4, tetracycline-induced, Amplex Red fluorescence (AID 1160)
# testSettings: 45 min, higher = more signal, called active from +8 up or from −8 down
Calls of active or inactive are those of the source.
Each entry below carries its reported z-score.

Worked examples, 6 compounds total:
CCCCN1CC=CC23O[C@@H]4/C=C\CCC(C)OC(=O)C4[C@H]2C(=O)N(CCO)[C@@H]3C1=O (stereo partly drawn)    0.416 (inactive)
CN1C(=O)C2C=CC(C(O)c3ccc(I)cc3)N(N(c3ccccc3)c3ccccc3)C2C1=O (stereo not drawn)    1.23 (inactive)
CN(C)C(=O)[C@]1(CCS(=O)(=O)c2ccccc2)N=C(c2ccc(OCCCO)cc2)O[C@@H]1c1ccccc1CN=[N+]=[N-]    2.09 (inactive)
C=CC[C@H](O)c1ccc(O)c2ccccc12    -1.98 (inactive)
C=CCOC(=O)[C@H]1[C@@H]2C(=O)O[C@@H](c3ccccc3)[C@@H](c3ccccc3)N2[C@@H](c2ccc(OCCOC(=O)[C@@H]3C[C@@H]4C(=O)N[C@@H](Cc5ccccc5)C(=O)N4[C@@H]3c3ccc(O)cc3)cc2)[C@]12C(=O)Nc1ccc(I)cc12    -1.15 (inactive)
CCOC(=O)C[C@H]1[C@H](OC(=O)c2cc3ccccc3oc2=O)[C@@H](NC(=O)Cc2ccc(OC)cc2)c2cc(OCCCO)ccc2N1C(=O)Cc1ccc(OC)cc1    1.52 (inactive)

Next:
Lab request: please report z-score under test system NADPH oxidase 4 (Homo sapiens) for C=C(/C=C\CNS(=O)(=O)c1ccc(C)cc1)[C@H](O)[C@H]1CCCN1S(=O)(=O)c1ccccc1[N+](=O)[O-]
-2.04 (inactive)

====

# protocolText: yeast growth modulation, basal conditions, primary screen, YJM789 clinical isolate, OD600, 24 h (AID 1089);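 also: growth of clinical yeast isolate S. cerevisiae YJM 789 seeded 1000 cells per well; test concentration not given here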
# testSettings: S. cerevisiae YJM789 growth, higher = more signal, called active from +8 up or from −8 down
Activity calls are given as the source filed them.
readout: z-score

Illustrative cases are given below, each with its answer.
COC(=O)[C@@]1(Cc2ccc(F)cc2)[C@H]2c3cc(C(=O)N4CCCC4)n(CCc4c[nH]c5cc(F)ccc45)c3C[C@H]2CN1C(=O)c1ccccc1    0.0277 (inactive)
C=CCNC(=O)[C@H]1[C@@H]2C(=O)O[C@@H](c3ccccc3)[C@@H](c3ccccc3)N2[C@@H](c2ccc(OCCO)cc2)[C@]12C(=O)N(C(=O)OCCOC)c1ccc(C#CCNC(N)=O)cc12    1.91 (inactive)
C=CC[C@H](O)c1ccc(O)c(F)c1    -0.63 (inactive)

Okay, now this compound:
For O=C1C2C=CC(C(O)c3ccccn3)N(Nc3ccc([N+](=O)[O-])cc3)C2C(=O)N1c1ccccc1 (centres undefined) , what is its reported z-score?
-0.931 (inactive)

====

# protocolText: binders from COS7 lysate, DM2A8 probe, primary screen, torsin A project, cell lysate, small-molecule microarray, fluorescence 635/667 (AID 1065)
# testSettings: higher = more signal, COS7 lysate expressing mutant human TOR1A
readout: composite z-score
Enter the number alone.

Cc1ccc(S[C@]2(C(=O)NCc3ccccc3)CC(=O)N(Cc3ccccc3Cl)[C@@H]2c2ccc(CO)cc2)cc1    -0.363

Turning to the following molecule.
Can you share its composite z-score? I mean this molecule: C[C@@]1([C@@H](NS(=O)(=O)c2cccc3cccnc23)c2ccc(-c3ccccc3)cc2)C[C@H]1C1CCCCC1
0.0816
